molecular target: HEK-293 cells transfected with dox-inducible human wild type FGFR3 (Homo sapiens (Human), UniProt P22607); test: FGFR3 pFGFR cell assay (ELISA); format: cell-based; settings: HEK-293 dox-inducible FGFR3, 1 hour compound, 100 ng/ml FGF-acidic
Sequence (P22607 23-806): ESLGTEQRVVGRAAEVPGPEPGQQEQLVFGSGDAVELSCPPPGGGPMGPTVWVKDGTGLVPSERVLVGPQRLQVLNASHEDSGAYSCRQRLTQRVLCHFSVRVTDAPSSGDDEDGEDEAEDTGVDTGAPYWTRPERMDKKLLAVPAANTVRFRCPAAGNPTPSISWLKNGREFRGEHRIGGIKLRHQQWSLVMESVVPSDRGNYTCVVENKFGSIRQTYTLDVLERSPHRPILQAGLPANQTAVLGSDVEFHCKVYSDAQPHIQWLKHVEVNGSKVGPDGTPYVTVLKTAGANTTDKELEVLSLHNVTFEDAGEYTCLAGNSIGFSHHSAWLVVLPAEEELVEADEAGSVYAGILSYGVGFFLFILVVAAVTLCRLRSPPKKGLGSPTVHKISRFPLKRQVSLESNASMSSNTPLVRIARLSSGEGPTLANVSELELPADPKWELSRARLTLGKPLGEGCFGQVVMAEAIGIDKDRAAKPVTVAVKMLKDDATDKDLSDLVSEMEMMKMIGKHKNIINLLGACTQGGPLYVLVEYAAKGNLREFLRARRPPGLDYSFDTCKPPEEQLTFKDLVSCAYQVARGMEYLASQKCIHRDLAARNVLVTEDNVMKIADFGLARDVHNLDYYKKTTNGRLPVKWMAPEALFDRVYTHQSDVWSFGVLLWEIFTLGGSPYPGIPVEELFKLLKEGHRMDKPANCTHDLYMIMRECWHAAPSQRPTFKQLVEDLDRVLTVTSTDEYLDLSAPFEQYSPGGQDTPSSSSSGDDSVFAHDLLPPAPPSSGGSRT
Kindly supply the reported pIC50 values for the records listed here.
When answering, recall that pIC50 equals minus log10 of the concentration in mol/L, and write that number alone.

Record request: pIC50 value, item "C=CC(=O)Nc1ccccc1C(=O)N1CCC[C@@H](n2cc(-c3cc(OC)c4c(C#N)cnn4c3)cn2)C1"
7.08

Record request: pIC50 value, item "C=CC(=O)N1CC[C@@H](C(=O)N2CCC(n3ncc(-c4cc(OC)c5c(C#N)cnn5c4)c3C)CC2)C1"
6.26

Record request: pIC50 value, item "C=CC(=O)N1CC(C(=O)N2CCN(c3ccc(-c4cc(OC)c5c(C#N)cnn5c4)cn3)CC2)C1"
7.37

Record request: pIC50 value, item "C=CC(=O)N1CC(F)(C(=O)N2CCC(n3cc(-c4cc(OC)c5c(Cl)cnn5c4)cn3)CC2)C1"
7.51

Record request: pIC50 value, item C=CC(=O)N1CC(C(=O)N2CCC(n3cc(-c4cc(OC)c5c(C#N)cnn5c4)cn3)CC2)C1C (stereo not shown)
7.51

Record request: pIC50 value, item "C=CC(=O)N1CC2(CCN(C(=O)N3CCC(n4cc(-c5cc(OC)c6c(C#N)cnn6c5)cn4)CC3)C2)C1"
6.83

Record request: pIC50 value, item "C=CS(=O)(=O)N1CC(C(=O)N2CCC(n3cc(-c4cc(OC)c5c(C#N)cnn5c4)cn3)CC2)C1"
7.92

Record request: pIC50 value, item "COc1cc(-c2cnn(C3CCN(C(=O)C4CN(C(=O)/C=C/CN(C)C)C4)CC3)c2)cn2ncc(C#N)c12"
6.28

Record request: pIC50 value, item "COc1cc(-c2cnn(C3CCN(C(=O)C4CN(C(=O)C#CCN(C)C)C4)CC3)c2)cn2ncc(C#N)c12"
7.74

Record request: pIC50 value, item "C=CC(=O)N1CC2(CCC(C(=O)N3CCC(n4cc(-c5cc(OC)c6c(C#N)cnn6c5)cn4)CC3)CC2)C1"
7.40

Record request: pIC50 value, item "C=CS(=O)(=O)N1CCC(C(=O)N2CCC(n3cc(-c4cc(OC)c5c(C#N)cnn5c4)cn3)CC2)CC1"
8.22

Record request: pIC50 value, item "C#CC(=O)N1CC(C(=O)N2CCC(n3cc(-c4cc(OC)c5c(C#N)cnn5c4)cn3)CC2)C1"
7.77

Record request: pIC50 value, item "C=CC(=O)N1CC(C)(C(=O)N2CCC(n3cc(-c4cc(OC)c5c(C#N)cnn5c4)cn3)CC2)C1"
8.05

Record request: pIC50 value, item "C=CC(=O)N1CC(C(=O)N2CCC(c3ccc(-c4cc(OC)c5c(C#N)cnn5c4)cc3)CC2)C1"
7.16

Record request: pIC50 value, item "C=CS(=O)(=O)Nc1cccc(C(=O)N2CCC(n3cc(-c4cc(OC)c5c(C#N)cnn5c4)cn3)CC2)c1"
7.62

Record request: pIC50 value, item "COc1cc(-c2cnn(C3CN(CC4CN(C(=O)/C=C/CN(C)C)C4)C3)c2)cn2ncc(C#N)c12"
6.45

Record request: pIC50 value, item "C=CC(=O)Nc1ccc(C(=O)N2CCC[C@@H](n3cc(-c4cc(OC)c5c(C#N)cnn5c4)cn3)C2)cc1"
7.05

Record request: pIC50 value, item "C=CC(=O)N1C[C@H]2CN(C(=O)N3CCC(n4cc(-c5cc(OC)c6c(C#N)cnn6c5)cn4)CC3)C[C@H]21"
6.96

Record request: pIC50 value, item "C=CC(=O)N1CC(C)(C(=O)N2CCC(n3cc(-c4cc(OC)c5c(Cl)cnn5c4)cn3)CC2)C1"
7.24
